test: pKa of
Format: physicochemical
test-context: Calculated pKa, ionic strength 0.55 M (KCl); 25 °C; buffer 0.05 M, AH/A- = 1.0
property-label: pKa

>>> measured_result("O=C(O)COCCO [compound 2, 2-(2-hydroxyethoxy) acetic acid]")
3.38

====

test: pKa of
Assay type: physicochemical
test-context: Calculated pKa, ionic strength 0.45 M (KCl); 25 °C; buffer 0.05 M, AH/A- = 1.0
property-label: pKa

>>> measured_result("O=C(O)COCCO [compound 2, 2-(2-hydroxyethoxy) acetic acid]")
3.36

====

test: pKa of
Type: physicochemical
test-context: Calculated pKa, ionic strength 0.35 M (KCl); 25 °C; buffer 0.05 M, AH/A- = 1.0
property-label: pKa

>>> measured_result("O=C(O)COCCO [compound 2, 2-(2-hydroxyethoxy) acetic acid]")
3.36
